# Tested on: Tetranychus urticae (spider mites - adult)
# assay_procedure: Contact test, spider mites - adult (TUa), French bean leaf
# Assay type: in vivo
# condition_summary: 72 h, 250 ppm, 3 days, read-out: TUA grading of mortality
endpoint: mortality at 250 ppm

Q: Record request: mortality at 250 ppm value, item CCOc1ccc(C(=CCCc2cccc(Oc3ccccc3)c2)C(F)(F)C(F)(F)F)cc1 [Compound 10]
Result: < 50%

Q: Continue with FC(F)(F)C(=CCCc1cccc(Oc2ccccc2)c1)c1ccc(C(F)(F)F)cc1 [Compound 15]
Result: 50 to 79%

Q: What do you have for CCOc1ccc(C(CCCc2ccc(F)c(Oc3ccccc3)c2)C(F)(F)F)cc1 (racemic) [Compound 5] ?
Result: 80 to 100%

Q: Please give the result for CC(C)(C)c1ccc(C(CCCc2cccc(Oc3ccccc3)c2)C(F)(F)F)cc1 (racemic) [Compound 8] too.
Result: < 50%
